ASSAY_PROCEDURE: qHTS assay to identify small molecule antagonists of the sonic hedgehog signaling (Shh) pathway (AID 1259369); note: nearly all actives have a fitted effect of over 45% in size; note: potency is the fitted concentration of half-maximal effect
CONDITION_SUMMARY: NIH/3T3 Gli1-Luc reporter, Shh antagonist, luminescence 24 h; series mostly up to 92.4 µM
Inconclusive results are not listed. The source made the active and inactive calls. Calls come from the whole dose curve.
MEASUREMENT_KIND: Potency

>>> readout_value("Clc1ccc(C(c2ccccc2Cl)C(Cl)(Cl)Cl)cc1 (stereo not given)")
"inactive"
>>> readout_value("Oc1cc(Cl)c(Cl)c(Cl)c1")
"13 µM (active)"
>>> readout_value("CC(=[OH+])/C=C(/C)[O-].CC(=[OH+])/C=C(\\C)[O-].CC(=[OH+])/C=C(\\C)[O-].[Al]")
"inactive"
>>> readout_value("CC(C)CC(C)Nc1ccc(Nc2ccccc2)cc1 (stereo not given)")
"12 µM (active)"
>>> readout_value("Fc1cccc(Cl)c1CCl")
"inactive"
>>> readout_value("C[C@H]1O[C@@H](O[C@H]2[C@@H](O)C[C@H](O[C@H]3[C@@H](O)C[C@H](O[C@H]4CC[C@@]5(C)[C@H](CC[C@@H]6[C@@H]5CC[C@]5(C)[C@@H](C7=CC(=O)OC7)CC[C@]65O)C4)O[C@@H]3C)O[C@@H]2C)C[C@H](O)[C@@H]1O")
"inactive"
>>> readout_value("CCCCOP(=O)(CCCC)OCCCC")
"inactive"
>>> readout_value("CCOCn1c(-c2ccc(Cl)cc2)c(C#N)c(Br)c1C(F)(F)F")
"0.611 µM (active)"
>>> readout_value("C=CCOC(N)=O")
"inactive"
>>> readout_value("O=[N+]([O-])c1ccc2ccc3cccc4ccc1c2c34")
"inactive"

Hello, the source for this data is PubChem BioAssay (Tox21), in case you need it.
